- Experimental Details: physchem
- Type: physicochemical
- Condition Label: pH 7.8
Overview of recorded log p for various compounds
Readout Name: log p

* CN(c1nc(Nc2ccc(F)c(N3CCCC3=O)c2)ncc1Cl)C1CC1 [Example 198] | 2.92[c];
* CCOC(=O)[C@@H]1CCC(=O)N1c1cccc(Nc2ncc(C(F)(F)F)c(NC3CC3)n2)c1 [Example 193] | 2.82[c];
* CC1CCN(c2cccc(Nc3ncc(Cl)c(NC4CC4C)n3)c2)C1=O (stereo not drawn) [Example 241] | 3.17[c];
* COc1cc(Nc2ncc(Cl)c(NC3CC3)n2)cc(N2CCCC2=O)c1 [Example 318] | 2.46[c];
* CC(C)N(C)c1nc(Nc2cccc(N3CCCC3=O)c2)ncc1Cl [Example 77] | 3.18[c]
* CC(C)Nc1nc(Nc2ccc(N3CCCC3=O)cc2)ncc1Cl [Example 21] | 2.56[c]
* CC1CC(Nc2nc(Nc3cccc(N4C(=O)CC(C)C4=O)c3)ncc2Cl)C1 (stereo not drawn) [Example 333] | 3.09[c];
* CC1CC(Nc2nc(Nc3cccc(N4C(=O)CC(C)C4=O)c3)ncc2Br)C1 (stereo not drawn) [Example 281] | 2.98[c];
* CC1(C)CC(=O)N(c2cccc(Nc3ncc(Cl)c(NC4CC4(C)C)n3)c2)C1=O (stereo not drawn) [Example 122] | 3.28[c];
* O=C1CCCN1c1cccc(Nc2ncc(Cl)c(NCC(F)(F)F)n2)c1 [Example 10] | 2.42[c]
* FC(F)(F)c1cnc(Nc2cccc(N3CCCC3=S)c2)nc1NC1CC1 [Example 214] | 2.86[c];
* CC1CN(c2cccc(Nc3ncc(Cl)c(NC4CCC4)n3)c2)C(=O)O1 (stereo not drawn) [Example 312] | 3.02[c];
* CNc1nc(Nc2ccc(N3CCOC3=O)cc2)ncc1Cl [Example 61] | 1.82[c]
* CC(C)Nc1nc(Nc2cccc(N3CCCC3=O)c2)ncc1C(F)(F)F [Example 297] | 3[c];
* CC1CCN(Cc2cccc(Nc3ncc(Cl)c(N(C)C4CC4)n3)c2)C1=O (stereo not drawn) [Example 233] | 3.25[c]
* O=C1CCC(C(F)(F)F)N1c1cccc(Nc2ncc(Cl)c(NC3CC3)n2)c1 (stereo not drawn) [Example 260] | 2.67[c];
* CCC1CC(C)C(=O)N1c1cccc(Nc2ncc(Br)c(NC(C)C)n2)c1 (stereo not drawn) [Example 210] | 3.7[c];
* COC1=CC(=O)N(c2cccc(Nc3ncc(Cl)c(NC4CC4)n3)c2)C1 [Example 237] | 2.45[c]
